# target.desc: human PPARγ ligand binding domain (Homo sapiens, UniProt P37231)
# Sequence (P37231 238-503 limits assumed): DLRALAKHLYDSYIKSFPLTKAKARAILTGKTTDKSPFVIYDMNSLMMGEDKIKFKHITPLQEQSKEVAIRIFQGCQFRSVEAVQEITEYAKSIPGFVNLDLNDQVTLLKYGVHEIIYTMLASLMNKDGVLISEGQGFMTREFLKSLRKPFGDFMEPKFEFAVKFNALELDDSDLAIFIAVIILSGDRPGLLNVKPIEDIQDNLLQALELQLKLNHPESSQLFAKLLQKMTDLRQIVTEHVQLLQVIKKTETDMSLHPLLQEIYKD
measured.attribute: IC50 (nM)
// note: answer is a bare numeric in nM

Reported IC50 for CCCCCCCC1SC(CC(=O)N(Cc2ccccc2)Cc2ccccc2)C(=O)N1CCCCc1ccc(C(=O)O)cc1 (stereo not shown) [GW0072, reference compound] : what is it?
280
